Measurement Description: forskolin-driven CRE-LacZ activity in PC12 – cell-based, CRE-LacZ reporter, forskolin-stimulated, primary screen (AID 1146);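 further: PC12 cells with 6xCRE LacZ reporter stimulated by forskolin 10 µM; beta-galactosidase reporter signal reflecting CREB driven transcription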
Stated Conditions: luminescence, 4.5 h, higher = more signal, called active from +8 up or from −8 down
Measurement Kind: z-score
Just the number.

Qu. Look at this compound and give its reported z-score. CCCCCN1CC=CC23O[C@@H]4C=CCCOC(=O)C4[C@H]2C(=O)N(CCCCCCO)[C@@H]3C1=O (some centres undefined)
Ans. -0.215

Qu. Look at this compound and give its reported z-score. COCCCNC(=O)[C@@]1(Sc2ccc(C)cc2)CC(=O)N(C2Cc3ccccc3C2)[C@@H]1c1ccc(CO)cc1
Ans. 1.95

Qu. Look at this compound and give its reported z-score. NC(=O)NCC#Cc1ccc2c(c1)[C@]1(C(=O)N2)[C@H](c2ccccc2OCCO)N2[C@H](c3ccccc3)[C@H](c3ccccc3)OC(=O)[C@H]2[C@@H]1C(=O)NC[C@H](O)c1ccccc1
Ans. -0.278

Qu. Look at this compound and give its reported z-score. C=CCC(OC(C)=O)[C@@H]1[C@@H](N(Cc2cccc3ccccc23)C(=O)Cc2ccc(OC)cc2)c2cc(OCCCO)ccc2N1C(=O)c1ccc(-c2ccccc2)cc1 (some centres undefined)
Ans. -0.375

Qu. Look at this compound and give its reported z-score. CCOC(=O)C1=C[C@@H](c2ccccc2)N(S(=O)(=O)c2ccc(C)cc2)[C@H]1c1ccc(OC)cc1
Ans. -0.0617

Qu. Look at this compound and give its reported z-score. CCCC=C(CCC)[C@@H](NP(=O)(c1ccccc1)c1ccccc1)c1ccc(-c2ccccc2)cc1
Ans. 1.24

Qu. Look at this compound and give its reported z-score. CCC#CCN(Cc1ccccc1Br)[C@H](/C=C/C1CC1)[C@@H](O)Cc1ccccc1
Ans. -0.835

Qu. Look at this compound and give its reported z-score. C=CCN1C(=O)[C@]2(CCS(=O)(=O)c3ccccc3)N=C(c3ccc(OCCCO)cc3)O[C@@H]2c2ccccc21
Ans. -1.11

Qu. Look at this compound and give its reported z-score. COC(=O)c1c(CC[C@@H](CO)NC(=O)N[C@@H](C)Cn2cc(-c3ccccn3)nn2)oc(C(C)=O)c1C(=O)OC
Ans. 0.363

Qu. Look at this compound and give its reported z-score. COc1ccc([Si](C)(C)[C@@H]2[C@@H](CCO)O[C@]3(C(=O)N(Cc4ccccc4)c4ccc(NC(=O)[C@H](C)O)cc43)[C@H]2C)cc1
Ans. -0.161

Qu. Look at this compound and give its reported z-score. COC(=O)[C@@]1(Cc2ccc(F)cc2)[C@H]2c3cc(C(=O)N4CCCC4)n(Cc4ccc(C)c(F)c4F)c3C[C@H]2CN1C(=O)c1ccccc1
Ans. -0.177

Qu. Look at this compound and give its reported z-score. COc1ccc(CCNC(=O)[C@@]2(Cc3ccccc3I)c3ccccc3C(=O)N(C3CCCCC3)[C@H]2c2ccc(CO)cc2)cc1
Ans. -1.06

Qu. Look at this compound and give its reported z-score. CCCN1C(=O)[C@]2(Cc3ccccc31)N=C(c1ccc(OCCCO)cc1)O[C@@H]2c1ccccc1
Ans. -0.647

Qu. Look at this compound and give its reported z-score. C=CCNC(=O)[C@@H]1[C@H]2C(=O)O[C@H](c3ccccc3)[C@H](c3ccccc3)N2[C@H](c2ccccc2OCCO)[C@@]12C(=O)N(C(=O)OCCOC)c1ccc(C#CC3(O)CCCCCC3)cc12
Ans. -0.965
